Test system: NCI-H226
Experiment: NCI screen, growth of human tumor cells: Non-Small Cell Lung NCI-H226
Assay type: cell-based
Conditions: NCI-H226, 10^−5 molar
Measured Attribute: % Growth (%)
Give the number; % is assumed, so skip it.

Previously resolved entries follow.
CC1=C(CC2S(=O)(=O)OCCOS2(=O)=O)C(=O)c2ccccc2C1=O = 48
O=S1(=O)OCCOS(=O)(=O)C1(Br)Br [NSC 648304, ethylene dibromomethanedisulfonate] = 49
Cc1ccc2ccccc2c1CC1S(=O)(=O)OCCOS1(=O)=O = 49
Cc1ccc(S(=O)(=O)NC(=O)C2S(=O)(=O)OCCOS2(=O)=O)cc1 = 37

Now consider a different compound.
Enquiry: Could you tell me which % Growth is on file for O=S1(=O)OCCOS(=O)(=O)C1Br [NSC 648305, ethylene bromomethanedisulfonate] ?
Return: 16

* * *

The molecules listed here are annotated with their percent of growth of human tumor cells.
System: M14
Test: NCI screen, growth of human tumor cells: Melanoma M14
Type: cell-based
Conditions: M14 (Melanoma), 10^−4 molar
Write down the value, and be sure its unit follows.

Previously resolved entries follow.
CCOCC1(COCC)S(=O)(=O)OCCOS1(=O)=O = −36%
CC=CC(=O)C1(C2=C(Cl)C(=O)c3ccccc3C2=O)S(=O)(=O)OCCOS1(=O)=O = −6%

Enquiry: Could you tell me which percent of growth of human tumor cells is on file for O=S1(=O)OCCOS(=O)(=O)C1c1cccc2cccnc12 [NSC 698122, ethylene 8-quinolylmethanedisulfonate] ?
Return: 10%

* * *

Test system: KM12
Test: NCI screen, growth of human tumor cells: Colon Cancer KM12
Type: cell-based
Conditions: KM12, 10^−4 molar
The compounds listed here are annotated with their % Growth.

Previously resolved entries follow.
CC(=O)C1(CC2=C(C)C(=O)c3ccccc3C2=O)S(=O)(=O)OCCOS1(=O)=O = −71%
CC1(C)OCC(COC(=O)C(=O)C2(Cc3ccc4c(c3)C(=O)c3ccccc3C4=O)S(=O)(=O)OCCOS2(=O)=O)O1 (stereo not drawn) = −74%
Cc1ccc2ccccc2c1CC1S(=O)(=O)OCCOS1(=O)=O = −69%
O=C1c2ccccc2C(=O)N1CC1S(=O)(=O)OCCOS1(=O)=O = 50%

Enquiry: Could you tell me which % Growth is on file for CC=CC(=O)C1(C2=C(Cl)C(=O)c3ccccc3C2=O)S(=O)(=O)OCCOS1(=O)=O ?
Return: −68%

Enquiry: Again, but for O=C(O)c1ccccc1C(=O)NCC1S(=O)(=O)OCCOS1(=O)=O
Return: 62%

* * *

System: MDA-MB-231/ATCC
Assay: NCI screen, growth of human tumor cells: Breast Cancer MDA-MB-231/ATCC
Assay type: cell-based
Conditions: MDA-MB-231/ATCC (Breast Cancer), 10^−4 molar
Procedure: In the NCI screening process, each compound was tested and described by a minimum of 60 data points. The test data include, but are not limited to the type of cancer, the molar concentration used in the screen, and the percent growth of the cancer. In some cases, NMR and elemental analysis were used for structural assignment.
The compounds listed here are annotated with their percent of growth of human tumor cells.
Give the number; % is assumed, so skip it.

Previously resolved entries follow.
CC1(C)OCC(COC(=O)C(=O)C2(Cc3ccc4c(c3)C(=O)c3ccccc3C4=O)S(=O)(=O)OCCOS2(=O)=O)O1 (stereo not drawn) = −9
Cc1ccc2ccccc2c1CC1S(=O)(=O)OCCOS1(=O)=O = −12
O=S1(=O)OCCOS(=O)(=O)C1Cc1nc2ccccc2[nH]1 = 30
CCOCC1(COCC)S(=O)(=O)OCCOS1(=O)=O = 18
CC1=C(CC2S(=O)(=O)OCCOS2(=O)=O)C(=O)c2ccccc2C1=O = −22
O=C(c1ccccc1S(=O)(=O)O)C1S(=O)(=O)OCCOS1(=O)=O = 25

Enquiry: Could you tell me which percent of growth of human tumor cells is on file for O=C1C(Cl)=C(C2S(=O)(=O)OCCOS2(=O)=O)C(=O)c2ccccc21 ?
Return: −15

Enquiry: Again, but for O=S1(=O)OCCOS(=O)(=O)C1c1cccc2cccnc12 [NSC 698122, ethylene 8-quinolylmethanedisulfonate]
Return: 26

Enquiry: Again, but for CC=CC(=O)C1(Cc2ccc3c(c2)C(=O)c2ccccc2C3=O)S(=O)(=O)OCCOS1(=O)=O
Return: −33
